# targetUnderTest: human CB2 (hCB2) receptor (Homo sapiens, UniProt P34972)
# Construct: expressed in transfected cells; host or cells: CHO-K1
# Sequence (P34972 whole entry): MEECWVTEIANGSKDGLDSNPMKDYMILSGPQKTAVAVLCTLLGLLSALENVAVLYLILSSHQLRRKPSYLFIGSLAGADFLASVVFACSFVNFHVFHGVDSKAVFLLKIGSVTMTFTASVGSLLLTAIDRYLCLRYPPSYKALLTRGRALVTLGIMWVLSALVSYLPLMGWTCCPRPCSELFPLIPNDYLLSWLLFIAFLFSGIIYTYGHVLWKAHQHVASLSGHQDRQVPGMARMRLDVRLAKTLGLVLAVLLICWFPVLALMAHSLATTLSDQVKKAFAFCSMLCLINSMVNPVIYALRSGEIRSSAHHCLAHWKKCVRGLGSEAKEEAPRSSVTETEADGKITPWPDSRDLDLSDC
# testName: Inhibition of forskolin-activated cAMP production upon activation of hCB2 (HTRF), CHO-K1 cells
# Assay type: cell-based
# conditionDescription: hCB2-CHO-K1 cells, forskolin-activated cAMP, pEC50=-log(EC50); read-out: CB2 pEC50 (converted)
EC50 less than 4 nM is T; EC50 greater than or equal to 4 nM is F.

{"molecule": "CC(C)(C)c1nc2cc(S(=O)(=O)c3ccc(S(C)(=O)=O)s3)ccc2n1CC1CCOCC1 [Co. No. 57]", "assignedLabel": "T"}
{"molecule": "CC(C)(C)Cc1nc2cc(S(=O)(=O)c3cc[n+]([O-])cc3)ccc2n1CC1CCOCC1", "assignedLabel": "F"}
{"molecule": "CC(C)(C)c1nc2cc(S(=O)(=O)c3ccn(CC(F)(F)F)c(=O)c3)ccc2n1CC1CCOCC1", "assignedLabel": "T"}
{"molecule": "CC(C)(C)c1nc2cc([S+]([O-])c3cc[n+]([O-])cc3C(F)(F)F)ccc2n1CC1CCOCC1 (stereo not drawn)", "assignedLabel": "F"}
{"molecule": "CC(C)(C)c1nc2cc(S(=O)(=O)c3ccc(S(C)(=O)=O)s3)ccc2n1CC1CCOCC1 [Co. No. 58]", "assignedLabel": "T"}
